biological target: Adenosine receptor A3 (Homo sapiens)
Sequence (P0DMS8 whole entry): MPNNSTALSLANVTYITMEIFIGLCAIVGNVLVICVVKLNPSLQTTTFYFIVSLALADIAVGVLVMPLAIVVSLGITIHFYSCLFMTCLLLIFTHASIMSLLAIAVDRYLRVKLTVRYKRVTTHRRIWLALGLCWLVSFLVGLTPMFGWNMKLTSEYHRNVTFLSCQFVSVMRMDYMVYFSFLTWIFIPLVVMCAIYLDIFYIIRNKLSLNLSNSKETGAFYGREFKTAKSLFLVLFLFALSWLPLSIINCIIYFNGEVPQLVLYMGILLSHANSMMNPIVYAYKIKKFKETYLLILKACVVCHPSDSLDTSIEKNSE
Each entry below lists one item and its recorded Ki value.

{"MOLECULE": "CN(c1nc2nn(C)cc2c2nc(-c3ccco3)nn12)C1CCCCC1", "UNIT_INFO": "nM", "Ki": 32.7}
{"MOLECULE": "Cn1cc2c(nc(NC3CCCCCC3)n3nc(-c4ccco4)nc23)n1", "UNIT_INFO": "nM", "Ki": 15.4}
{"MOLECULE": "Cn1cc2c(nc(NCCCCCCO)n3nc(-c4ccco4)nc23)n1", "UNIT_INFO": "nM", "Ki": 156}
{"MOLECULE": "Cn1cc2c(nc(N(Cc3ccccc3)Cc3ccccc3)n3nc(-c4ccco4)nc23)n1", "UNIT_INFO": "nM", "Ki": 404}
{"MOLECULE": "CONc1nc2nn(C)cc2c2nc(-c3ccco3)nn12", "UNIT_INFO": "nM", "Ki": 404}
{"MOLECULE": "CC(O)CNc1nc2nn(C)cc2c2nc(-c3ccco3)nn12 (stereo unspecified)", "UNIT_INFO": "nM", "Ki": 356}
{"MOLECULE": "CC[C@@H](C)Nc1nc2nn(C)cc2c2nc(-c3ccco3)nn12", "UNIT_INFO": "nM", "Ki": 5.93}
{"MOLECULE": "CCCCN(C)c1nc2nn(C)cc2c2nc(-c3ccco3)nn12", "UNIT_INFO": "nM", "Ki": 36.7}
{"MOLECULE": "CCNc1nc2nn(C)cc2c2nc(-c3ccco3)nn12", "UNIT_INFO": "nM", "Ki": 44.4}
{"MOLECULE": "Cn1cc2c(nc(NC3C4CC5CC(C4)CC3C5)n3nc(-c4ccco4)nc23)n1 (stereo unspecified)", "UNIT_INFO": "nM", "Ki": 18.8}
{"MOLECULE": "Cn1cc2c(nc(N3CCCC3)n3nc(-c4ccco4)nc23)n1", "UNIT_INFO": "nM", "Ki": 35.5}

Ref: ChEMBL document CHEMBL2177027
